- experiment summary: Exudation of active agents from gel specimens to filter paper discs, quantified by UV, MS, GC and/or HPLC after extraction
- Type: physicochemical
- condition parameters: Gel Specimen Number 2; 18 h filter exposure, time 40-58 h; 37° C., 0.40 psi
property name: Active Agent Transferred from Gel to Filters (μg per filter)

O=C(O)c1ccccc1O [Salicylic Acid, reference compound]    3941

A. O=c1c(O)c(-c2ccc(O)c(O)c2)oc2cc(O)cc(O)c12 [Quercetin]
B. COC(=O)c1ccccc1O [Methyl Salicylate, reference compound]
C. CCCCCCCCCCCCCCCC(=O)OC/C=C(C)/C=C/C=C(C)/C=C/C1=C(C)CCCC1(C)C [Vit. A Palmitate, reference compound]
Q: Task for the reader: rank each entry by its Active Agent Transferred from Gel to Filters, from the minimum upward. Arrange the labels as the request states and list them.
Result: A, C, B
(A: 16 μg per filter, C: 1523 μg per filter, B: 3729 μg per filter)

* * *

- experiment summary: Exudation of active agents from gel specimens to filter paper discs, quantified by UV, MS, GC and/or HPLC after extraction
- Assay type: physicochemical
- condition parameters: Gel Specimen Number 1; cumulative, Time 22 h
property name: Total Active Agent Exuded from Gel (µg)

O=C(O)c1ccccc1O [Salicylic Acid, reference compound]    5929

I. O=c1c(O)c(-c2ccc(O)c(O)c2)oc2cc(O)cc(O)c12 [Quercetin]
II. COC(=O)c1ccccc1O [Methyl Salicylate, reference compound]
III. CCCCCCCCCCCCCCCC(=O)OC/C=C(C)/C=C/C=C(C)/C=C/C1=C(C)CCCC1(C)C [Vit. A Palmitate, reference compound]
Q: Please list these in order of increasing Total Active Agent Exuded from Gel. Thank you! Respond with the label ranking, as requested.
Result: I, III, II
(I: 42 µg, III: 3773 µg, II: 7511 µg)

* * *

- experiment summary: Exudation of active agents from gel specimens to filter paper discs, quantified by UV, MS, GC and/or HPLC after extraction
- Type: physicochemical
- condition parameters: Gel Specimen Number 2; cumulative, Time 40 h
property name: Total Active Agent Exuded from Gel (µg)

COC(=O)c1ccccc1O [Methyl Salicylate, reference compound]    13376

P. O=c1c(O)c(-c2ccc(O)c(O)c2)oc2cc(O)cc(O)c12
Q. O=C(O)c1ccccc1O [Salicylic Acid, reference compound]
R. CCCCCCCCCCCCCCCC(=O)OC/C=C(C)/C=C/C=C(C)/C=C/C1=C(C)CCCC1(C)C [Vit. A Palmitate, reference compound]
Q: Put the items in sequence by Total Active Agent Exuded from Gel, from largest down. A complete answer lists every label in the requested sequence.
Result: Q, R, P
(Q: 12293 µg, R: 5614 µg, P: 78 µg)

* * *

- experiment summary: Exudation of active agents from gel specimens to filter paper discs, quantified by UV, MS, GC and/or HPLC after extraction
- Assay type: physicochemical
- condition parameters: Gel Specimen Number 2; 3 h filter exposure, time 1-4 h; 37° C., 0.40 psi
- Method: Sample filter paper discs were placed in contact with gel specimens of same diameter under constant low pressure (0.40 psi. (2.8 Mpa)) at 37° C. […] Quantification of active agent transferred to the filter paper discs was determined by UV, MS, GC and or HPLC analysis after extraction of active agent from the filter paper. Exudation rates was expressed as μg/unit time per unit surface area. […] Exposure Conditions: 37-40 deg. […] Pressure calculated at ˜0.407 psi. […]
property name: Active Agent Transferred from Gel to Filters (μg per filter)

COC(=O)c1ccccc1O [Methyl Salicylate, reference compound]    2506
O=C(O)c1ccccc1O [Salicylic Acid, reference compound]    1459

1. CCCCCCCCCCCCCCCC(=O)OC/C=C(C)/C=C/C=C(C)/C=C/C1=C(C)CCCC1(C)C [Vit. A Palmitate, reference compound]
2. O=c1c(O)c(-c2ccc(O)c(O)c2)oc2cc(O)cc(O)c12
Q: Of 1 and 2 , which carries the smaller reported Active Agent Transferred from Gel to Filters figure? Pick one; state its label.
Result: 2
(2: 15 μg per filter, 1: 1284 μg per filter)

Hello, the source for this data is patent US20100063008A1, in case you need it.
